measuredOn: T1, recombinant human domain 1-3His6 of the cation-independent mannose-6-phosphate receptor (human, UniProt P11717 41-467)
T1 construct: Biotinylated (NHS-PEG4-biotin) for BLI; Glycosylated; also called hDom1-3His6; hCI-M6PRD1-D3
assayNotes: BLI at pH 7.4, 1st of 2 repeats
testReadout: kon
# answer = value followed by unit

| binder | kon |
| --- | --- |
| anti-CI-M6PR VHH8 (VHH, His6-tagged (Pichia pastoris)) VHH: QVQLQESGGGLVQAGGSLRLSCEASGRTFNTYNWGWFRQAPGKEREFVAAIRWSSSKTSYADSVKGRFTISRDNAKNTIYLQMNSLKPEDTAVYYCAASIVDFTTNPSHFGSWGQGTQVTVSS | 465000 M⁻¹ s⁻¹ |
| anti-CI-M6PR VHH10 (VHH, His6-tagged; made in Pichia pastoris) VHH: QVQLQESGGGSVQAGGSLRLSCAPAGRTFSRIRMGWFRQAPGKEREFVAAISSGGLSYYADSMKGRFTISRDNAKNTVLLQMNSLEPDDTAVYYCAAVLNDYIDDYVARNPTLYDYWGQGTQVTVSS | 38100 M⁻¹ s⁻¹ |
| anti-CI-M6PR VHH11 (VHH, His6-tagged; made in Pichia pastoris) VHH: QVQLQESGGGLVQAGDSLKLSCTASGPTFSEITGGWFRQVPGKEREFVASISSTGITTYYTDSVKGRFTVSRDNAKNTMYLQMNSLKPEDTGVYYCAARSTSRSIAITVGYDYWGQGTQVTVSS | 76700 M⁻¹ s⁻¹ |
| anti-CI-M6PR VHH6 (VHH, His6-tagged; made in E. coli) VHH: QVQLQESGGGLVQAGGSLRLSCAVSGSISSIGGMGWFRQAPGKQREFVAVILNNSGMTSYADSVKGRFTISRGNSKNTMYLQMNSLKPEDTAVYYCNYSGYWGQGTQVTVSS | 1.05e+06 M⁻¹ s⁻¹ |
| anti-CI-M6PR VHH1 (VHH, His6-tagged; made in Pichia pastoris, later also in E. coli WK6) VHH: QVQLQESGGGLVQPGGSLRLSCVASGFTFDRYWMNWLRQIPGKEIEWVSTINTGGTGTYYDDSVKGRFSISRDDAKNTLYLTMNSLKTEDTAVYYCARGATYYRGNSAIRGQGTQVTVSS | 814000 M⁻¹ s⁻¹ |

State its kon: anti-CI-M6PR VHH9 (VHH, His6-tagged; made in Pichia pastoris) VHH: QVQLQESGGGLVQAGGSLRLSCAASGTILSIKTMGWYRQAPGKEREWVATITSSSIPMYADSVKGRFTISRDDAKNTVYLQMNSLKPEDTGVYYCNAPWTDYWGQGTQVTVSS
1.57e+06 M⁻¹ s⁻¹
